- Tested on: hiPSC-CM (iCell Cardiomyocytes^2)
- EXPERIMENT NOTES: Intracellular miRNA expression by RT-qPCR in hiPSC-CM pellets after 72-hour treatment
- ASSAY CONDITIONS: lowest concentration tested which produced miRNA upregulation (fold change ≥2), 72 h
Counter-ions that a name gives are not always drawn.
READOUT KIND: miRNAs hiPSC-CM pellet, MEC overall

Note miRNAs hiPSC-CM pellet, MEC overall for the molecule shown: CC(C)C[C@H](NC(=O)CNC(=O)c1cc(Cl)ccc1Cl)B1OC(=O)C(CC(=O)O)(CC(=O)O)O1 [Ixazomib Citrate]
0.03 µM

Note miRNAs hiPSC-CM pellet, MEC overall for the molecule shown: CCN[C@@H](C)Cc1cccc(C(F)(F)F)c1
0.01 µM

Note miRNAs hiPSC-CM pellet, MEC overall for the molecule shown: CC(C)C[C@H](NC(=O)[C@H](CCc1ccccc1)NC(=O)CN1CCOCC1)C(=O)N[C@@H](Cc1ccccc1)C(=O)N[C@@H](CC(C)C)C(=O)[C@@]1(C)CO1
0.3 µM

Note miRNAs hiPSC-CM pellet, MEC overall for the molecule shown: CCCCCNC(=N)N/N=C/c1c[nH]c2ccc(OC)cc12
0.01 µM

Note miRNAs hiPSC-CM pellet, MEC overall for the molecule shown: CCN(CC)CCNC(=O)c1c(C)[nH]c(/C=C2\C(=O)Nc3ccc(F)cc32)c1C
0.01 µM
